Answer each item with its documented max response, negative = inhibition.
target_of_assay: Vitamin D3 receptor (Homo sapiens) (UniProt P11473)
Sequence (P11473 whole entry, looked up): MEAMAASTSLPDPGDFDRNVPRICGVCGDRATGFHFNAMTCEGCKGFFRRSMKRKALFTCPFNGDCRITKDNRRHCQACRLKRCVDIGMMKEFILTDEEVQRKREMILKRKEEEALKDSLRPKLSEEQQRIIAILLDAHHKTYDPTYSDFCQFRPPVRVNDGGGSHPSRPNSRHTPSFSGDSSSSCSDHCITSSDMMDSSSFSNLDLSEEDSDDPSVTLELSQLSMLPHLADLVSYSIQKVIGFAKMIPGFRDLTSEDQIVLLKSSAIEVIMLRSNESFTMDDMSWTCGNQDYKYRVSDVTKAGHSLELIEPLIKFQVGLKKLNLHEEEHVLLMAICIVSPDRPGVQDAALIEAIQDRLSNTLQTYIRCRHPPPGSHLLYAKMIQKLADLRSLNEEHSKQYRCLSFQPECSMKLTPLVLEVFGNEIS
test_details: Inhibitors of the vitamin D receptor (VDR): qHTS; further: on the % scale 0 is the no-effect control and ±100 the full control effect
assay_conditions: VDR-SRC2-3 peptide fluorescence polarization, 2 h; active compounds read low
About 3,700 (0.93%) of roughly 400,000 compounds were called active. Not shown: some 3% with an inconclusive outcome. What follows is part of a selection rich in actives, with near analogues and random picks from the rest.
Reply numerically in %, unit not repeated.

max response, negative = inhibition for Cc1sc2ncn(CC(=O)N3CCN(c4ccc(F)cc4)CC3)c(=O)c2c1S(=O)(=O)N1CCN(c2ncccn2)CC1 ?
-10.1

Which max response, negative = inhibition is listed for COC(=O)c1ccc(-c2nc3cc(NC(C)=O)ccc3o2)cc1 ?
-22.5

Which max response, negative = inhibition is reported for this compound? CCOC(=O)c1c(NC(=O)CSc2nccc(=O)[nH]2)sc(C)c1C
-12.3

Reported max response, negative = inhibition, compound CCOC(=O)c1c(S(=O)(=O)N2CCCC(C(=O)NCc3cccc(C)c3)C2)c(C)n(C)c1C (stereo not given) : ____
14.2

max response, negative = inhibition lookup needed for CCOC(=O)c1c(NC(=O)CSc2nnc(CNc3ccc(C)cc3C)o2)sc(C)c1C , thanks.
-11.8

Data provenance: PubChem BioAssay AID504847
